Provide the reported log10(IC50) of each item.
- TESTED_ON: MMP-1 (Homo sapiens)
- Sequence (P03956 100-469): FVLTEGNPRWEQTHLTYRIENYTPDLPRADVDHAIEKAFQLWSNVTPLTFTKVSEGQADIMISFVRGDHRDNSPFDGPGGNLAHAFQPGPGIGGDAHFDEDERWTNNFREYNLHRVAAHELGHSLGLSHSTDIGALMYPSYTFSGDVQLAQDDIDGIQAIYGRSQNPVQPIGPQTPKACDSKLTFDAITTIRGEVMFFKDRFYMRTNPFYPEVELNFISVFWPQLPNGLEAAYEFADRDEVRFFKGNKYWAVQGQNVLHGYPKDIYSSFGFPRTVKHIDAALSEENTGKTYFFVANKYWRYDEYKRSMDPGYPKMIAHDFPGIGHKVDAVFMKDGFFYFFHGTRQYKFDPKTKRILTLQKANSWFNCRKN
- PROTOCOL_NOTES: MMP-1 inhibition, thiopeptide or fluorescent peptide substrate test procedure
- Type: biochemical
- CONDITION_CONTEXT: in vitro enzyme inhibition
Values below are the log10 of the recorded IC50, with nM as the unit.

Reference set, count: 5
Identify the reported log10(IC50) for the following entry. CC=C=CCOc1ccc(S(=O)(=O)NC(C(=O)NO)C(C)C)cc1 (stereo not drawn)
3.94

Identify the reported log10(IC50) for the following entry. C=C=CCOc1ccc(S(=O)(=O)N2Cc3ccccc3N(C(=O)c3ccccc3)CC2C(=O)NO)cc1 (stereo not drawn)
2.83

Identify the reported log10(IC50) for the following entry. `C=C=CCOc1ccc(S(=O)(=O)N2CCSC(C)(C)[C@@H]2C(=O)NO)cc1`
1.70

Identify the reported log10(IC50) for the following entry. CC=C=CCOc1ccc(S(=O)(=O)N(C)C(C(=O)NO)C(C)C)cc1 (stereo not drawn)
2.94

Identify the reported log10(IC50) for the following entry. C=C=CCOc1ccc(S(=O)(=O)N2Cc3ccccc3N(C(C)=O)CC2C(=O)NO)cc1 (stereo not drawn)
3.37

***
Identify the reported log10(IC50) for the following entry. C=C=CCOc1ccc(S(=O)(=O)NC(C(=O)NO)C(C)C)cc1 (stereo not drawn)
3.43
